Source: patent US7846959B2

- tgt: c-Raf (Homo sapiens, UniProt P04049)
- Sequence (P04049 whole entry): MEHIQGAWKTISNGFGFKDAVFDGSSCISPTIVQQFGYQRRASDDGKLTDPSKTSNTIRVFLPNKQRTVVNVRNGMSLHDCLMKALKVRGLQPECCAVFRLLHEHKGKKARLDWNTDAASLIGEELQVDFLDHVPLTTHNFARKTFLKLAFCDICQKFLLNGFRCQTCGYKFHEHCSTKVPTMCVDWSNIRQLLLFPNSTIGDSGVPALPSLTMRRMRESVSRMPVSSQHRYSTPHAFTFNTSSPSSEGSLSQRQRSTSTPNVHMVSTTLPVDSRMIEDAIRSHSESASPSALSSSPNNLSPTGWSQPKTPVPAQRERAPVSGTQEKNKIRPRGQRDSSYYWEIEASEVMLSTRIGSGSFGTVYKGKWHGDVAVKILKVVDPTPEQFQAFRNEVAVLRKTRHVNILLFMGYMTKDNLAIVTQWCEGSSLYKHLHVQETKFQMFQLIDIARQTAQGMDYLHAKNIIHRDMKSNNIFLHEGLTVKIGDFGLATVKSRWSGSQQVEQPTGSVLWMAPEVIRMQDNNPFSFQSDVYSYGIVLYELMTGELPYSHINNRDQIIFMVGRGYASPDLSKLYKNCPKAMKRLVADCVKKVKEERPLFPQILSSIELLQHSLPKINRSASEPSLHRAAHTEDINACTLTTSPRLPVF
- experiment-notes: Luciferase-coupled chemiluminescence kinase assay (ATP consumption), c-Raf
- Format: biochemical
- experimental-parameters: read-out: cRaf-1 IC50
Consider the following molecules; for each one, report its IC50.

Need IC50 for each of these molecules.
1. COC(=O)Nc1nc2cc(C3(O)c4ccccc4C(=O)N3c3ccc(F)c(Cl)c3F)ccc2[nH]1 (stereo not shown)
2. COC(=O)Nc1nc2cc(C3(O)c4ccccc4C(=O)N3c3cccc(S(N)(=O)=O)c3)ccc2[nH]1 (stereo not shown)
3. COC(=O)Nc1nc2cc(C3(O)c4ccccc4C(=O)N3CC(C)(C)C)ccc2[nH]1 (stereo not shown)
4. O=C1COc2ccc(C3(O)c4ccccc4C(=O)N3Cc3cccc([N+](=O)[O-])c3)cc2N1 (stereo not shown)
5. COC(=O)Nc1nc2cc(C3(O)c4ccccc4C(=O)N3CC(C)C)ccc2[nH]1 (stereo not shown)
6. COC(=O)Nc1nc2cc(C3(O)c4ccccc4C(=O)N3c3ccccc3OC)ccc2[nH]1 (stereo not shown)

< 100 nM
100 to 1000 nM
1000 to 10000 nM
1000 to 10000 nM
100 to 1000 nM
< 100 nM
